Listing: TNF-α level of selected compounds
Tested on: LPS-induced TNF-α production in RAW 264.7 cells
Conditions: cells treated with 25 μM compound, LPS-activated RAW 264.7
// units = pg/mL; emit number, no label

// solved cases for TNF-α level follow
Cc1ccc(NC(=O)CSC2=N/C(=C\c3ccc(Cl)cc3)C(=O)N2c2ccccc2)cc1 [Compound 4n]	37.28
O=C(CSC1=N/C(=C\c2ccc(Cl)cc2)C(=O)N1c1ccccc1)Nc1ccccc1 [Compound 4j]	50.31
O=C(CSC1=N/C(=C\c2ccccc2)C(=O)N1c1ccccc1)Nc1ccccc1 [Compound 4a]	57.28

Here is the next item to consider.
Dear colleague, I am looking for the recorded TNF-α level of the following compound: COc1ccc(NC(=O)CSC2=N/C(=C\c3ccccc3)C(=O)N2c2ccccc2)cc1 [Compound 4f] 22.94

Sourced from paper PMC11073913
